assay: Quantitative High-Throughput drug screen in 47 multiple myeloma cell lines against the NCATS MIPE library collection: ARP1_JJKsccF8 cell viability assay (AID 1918928; also: nearly all actives have a fitted effect of over 40% in size; also: potency is read from the fitted curve at half-maximal effect); settings: ARP1 myeloma cells viability, CellTiter-Glo ATP, 48 h; series mostly up to 45.8 µM
Inconclusive results are not listed. Calls of active or inactive are those of the source. Calls follow the shape of the dose curve; as a rule, active = well fitted cell-killing curve with a large enough effect; inconclusive = small, poorly fitted or top-dose-only effect, or effect the other way; inactive = no such curve, though single readings can be large or run the other way.
property_label: Potency

N[C@H]1CN(c2c(F)cc3c(=O)c(C(=O)O)cn(C4C[C@@H]4F)c3c2Cl)CC12CC2 (some centres undefined) : inactive
CCN(CC)Cc1ccc2cc(COC(=O)Nc3ccc(C(=O)NO)cc3)ccc2c1 : 590 nM (active)
OC[C@@H](O)[C@@H](O)[C@H](O)[C@@H](O)CO : inactive
CN1CCc2c(c3ccccc3n2Cc2ccc(C(=O)NO)cc2)C1 : 18700 nM (active)
Nc1ccn(C[C@@H](CO)OCP(=O)(O)O)c(=O)n1 : inactive
C=C1CCC2[C@](C)(CO)C(O)CC[C@]2(C)C1CC=C1C(=O)OCC1O (some centres undefined) : inactive

Fill in Potency for each of the 4 molecules listed.
1. C[C@H]1[C@@H](OC(=O)CCC(=O)O)O[C@@H]2O[C@@]3(C)CC[C@@H]4[C@H](C)CC[C@@H]1[C@@]24OO3
2. COC1=C2C[C@@H](C)C[C@H](OC)[C@@H](O)[C@@H](C)C=C(C)[C@H](OC(N)=O)[C@@H](OC)C=CC=C(C)C(=O)NC(=CC1=O)C2=O
3. CC[C@H](CC[C@@H](C)[C@H]1CC[C@H]2[C@@H]3CC=C4C[C@@H](O)CC[C@]4(C)[C@@H]3CC[C@]12C)C(C)C
4. CC1(C)CC(O)CC(C)(C)N1[O]

Result string:
2350 nM (active)
118 nM (active)
inactive
inactive

Fill in Potency for each of the 8 molecules listed.
1. O=C(CCCCCCC(=O)Nc1cccnc1)NO
2. CCCCCCCCCCCCc1ccc(S(=O)(=O)Nc2nncs2)cc1
3. Cc1noc(-c2ccc(CSCCC(=O)O)cc2)c1NC(=O)OC(C)c1ccccc1Cl (centres undefined)
4. NC(=O)c1cccc(-c2cccc(OC(=O)NC3CCCCC3)c2)c1
5. CC(=O)OCC(=O)[C@@]1(O)CC[C@H]2[C@@H]3CCC4=CC(=O)CC[C@]4(C)[C@@H]3C(=O)C[C@@]21C
6. C[C@@H](Cc1cc2c(c(C(N)=O)c1)N(CCCO)CC2)NCCOc1ccccc1OCC(F)(F)F
7. COc1cccc2c1C(=O)c1c(O)c3c(c(O)c1C2=O)C[C@@](O)(C(C)=O)C[C@H]3O[C@H]1C[C@H](N)[C@H](O)[C@H](C)O1
8. C[C@@]12C(=O)OC(=O)[C@@]1(C)C1CCC2O1

Result string:
2350 nM (active)
inactive
inactive
inactive
inactive
inactive
59 nM (active)
833 nM (active)

Query string: Dear colleague, I am looking for the recorded Potency of the following molecule: Cc1cc(-c2nnc3n2CCCCC3)c(C)n1-c1ccccc1
Result string: inactive

----------
assay: qHTS of pediatric cancer cell lines to identify multiple opportunities for drug repurposing: Primary screen for U-2 OS cells (AID 1347096); conditions: U-2 OS viability, CellTiter-Glo luminescence, 48 h; series mostly up to 46 µM; also: nearly all actives have a fitted effect of over 50% in size
Records with an inconclusive call do not appear. Calls of active or inactive are those of the source. Calls come from the whole dose curve; as a rule, active = well fitted cell-killing curve with a large enough effect; inconclusive = small, poorly fitted or top-dose-only effect; inactive = flat fitted curve, though single readings scatter.
Choose the fitting class; nothing outside active, inactive is accepted.

Some solved entries appear below for comparison.
CCCNS(=O)(=O)Nc1ncnc(OCCOc2ncc(Br)cn2)c1-c1ccc(Br)cc1 : inactive
C[C@H](NCc1ccc(OCc2cccc(F)c2)cc1)C(N)=O : active
O=C(Nc1ccc(Oc2ccnc3[nH]ccc23)c(F)c1)c1cccn(-c2ccc(F)cc2)c1=O : inactive
CC[C@H](CC[C@@H](C)[C@H]1CC[C@H]2[C@@H]3CC=C4C[C@@H](O)CC[C@]4(C)[C@@H]3CC[C@]12C)C(C)C : inactive
Cn1cc(C[C@@H](N)C(=O)O)c2ccccc21 : inactive

Query string: // return assay outcome for CC(=O)N[C@@H]1[C@H](O[C@@H]2c3ccc(c(Cl)c3)Oc3cc4cc(c3O[C@H]3O[C@H](CO)[C@@H](O)[C@H](O)[C@H]3NC(=O)CCCCCCCC(C)C)Oc3ccc(cc3Cl)C[C@H]3NC(=O)[C@H](N)c5ccc(O)c(c5)Oc5cc(O)cc(c5)[C@H](NC3=O)C(=O)N[C@H]4C(=O)N[C@H]3C(=O)N[C@@H]2C(=O)N[C@@H](C(=O)O)c2cc(O)cc(O[C@H]4O[C@H](CO)[C@@H](O)[C@H](O)[C@H]4O)c2-c2cc3ccc2O)O[C@H](CO)[C@@H](O)[C@@H]1O
Result string: inactive

Query string: // return assay outcome for O=C(NNC(=O)c1ccc(CNS(=O)(=O)c2ccc(F)c(Cl)c2)cc1)c1ccccc1
Result string: inactive

----------
assay: Primary fluorescence-based thiol-reactive (MSTI) qHTS assay for identification of artifact compounds. (AID 1845221); settings: MSTI thiol-reactivity probe, 1 h; series mostly up to 53.8 µM;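 also: thiol-reactive compounds lower the probe fluorescence signal; nearly all actives have a fitted effect of over 65% in size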
Results filed as inconclusive are left out. Calls of active or inactive are those of the source. The call rests on the fitted dose curve; in most records, active means well fitted inhibition curve with a large enough effect; inconclusive means small, poorly fitted or top-dose-only effect; inactive means no such curve, though single readings can be large or run the other way.
property_label: outcome

CC(C)C[C@H](NC(=O)[C@@H](NC(=O)c1cccc(-c2ccccc2)n1)[C@@H](C)O)B(O)O : inactive
C=CC(=O)Nc1ccc2ncnc(Nc3ccc(OCc4cccc(F)c4)c(Cl)c3)c2c1 : inactive
Oc1ccc([C@@H]2Oc3ccc(O)cc3[C@@H]3CCC[C@@H]32)cc1 : inactive

----------
tested on: MCC-26; test: qHTS assay to identify novel small-molecules to repurpose for Merkel cell carcinoma treatment (AID 1296009); details: MCC and control cell lines, CellTiter-Glo viability, 72 h; series mostly up to 46 µM; also: nearly all actives have a fitted effect of over 60% in size; also: potency is read from the fitted curve at half-maximal effect
Records with an inconclusive call do not appear. Calls of active or inactive are those of the source. The call rests on the fitted dose curve; in most records, active means well fitted inhibition curve with a large enough effect; inconclusive means small, poorly fitted or top-dose-only effect; inactive means flat fitted curve, though single readings scatter.
property_label: Potency

O=c1[nH]c(=O)n([C@H]2C[C@@H](O)[C@@H](CO)O2)cc1C=CBr : inactive
CN[C@H]1[C@@H](O)[C@@H]2O[C@@H]3O[C@H](C)CC(=O)[C@]3(O)O[C@@H]2[C@@H](NC)[C@H]1O : inactive
CCCCCCCCc1ccc(CCC(N)(CO)CO)cc1 : inactive
C[C@@H]1[C@H](C)CC[C@]2(C(=O)O)CC[C@]3(C)C(=CC[C@@H]4[C@@]5(C)C[C@@H](O)[C@H](O)[C@@](C)(CO)[C@H]5CC[C@]43C)[C@@H]12 : inactive
Cc1nc(NC(=O)N2CCC[C@@H]2C(N)=O)sc1-c1ccnc(C(C)(C)C(F)(F)F)c1 : inactive

Fill in Potency for each of the 5 molecules listed.
1. CN(CC(=O)N(Cc1ccc(C2CCCCC2)cc1)c1ccc(C(=O)O)c(O)c1)S(=O)(=O)c1c(F)c(F)c(F)c(F)c1F
2. C[C@@H](Cc1cc2c(c(C(N)=O)c1)N(CCCO)CC2)NCCOc1ccccc1OCC(F)(F)F
3. O=C(O)CCCCCC(=O)NN=C1CCCC1
4. CC(C=CC1=C(C)CCCC1(C)C)=CC=CC(C)=CC(=O)Nc1ccc(O)cc1
5. COc1cccc2c1C(=O)c1c(O)c3c(c(O)c1C2=O)C[C@@](O)(C(C)=O)C[C@H]3O[C@H]1C[C@H](N)[C@H](O)[C@H](C)O1

Result string:
inactive
inactive
inactive
inactive
0.372 µM (active)

Fill in Potency for each of the 5 molecules listed.
1. CC(=O)SCC(Cc1ccccc1)C(=O)NCC(=O)OCc1ccccc1 (stereo not drawn)
2. Nc1nc(=O)n([C@H]2C[C@H](O)[C@@H](CO)O2)cc1F
3. C[C@H](NCc1ccc(OCc2cccc(F)c2)cc1)C(N)=O
4. O=C(O)CCCCC(CCSCc1ccccc1)SCc1ccccc1 (stereo not drawn)
5. C[C@@]12C[C@@]3(O)O[C@@H](O1)[C@]1(COC(=O)c4ccccc4)[C@@H]3C[C@@]12O[C@@H]1O[C@H](CO)[C@@H](O)[C@H](O)[C@@H]1O

Result string:
["inactive", "inactive", "20.9 µM (active)", "inactive", "inactive"]

Fill in Potency for each of the 2 molecules listed.
1. COc1cc(OC)c(NC(=O)Nc2cc(C)on2)cc1Cl
2. CN(C)CC[C@H](c1ccc(Cl)cc1)c1ccccn1

Result string:
1: inactive; 2: inactive

Query string: Dear colleague, I am looking for the recorded Potency of the following molecule: CN(C)c1ccc2cc(C(=O)N[C@@H](CCCN=C(N)CCl)C(=O)NCc3ccccc3)ccc2c1
Result string: inactive

----------
assay: qHTS profiling of the MIPE4 collection as inhibitors of Plasmodium falciparum (DD2) proliferation (Rep 2) (AID 743346); conditions: P. falciparum Dd2 in erythrocytes, SYBR Green DNA, 72 h; at 28.5 µM (top of the series) unless noted
For each record, check the reported parasite growth, % of control (lower = inhibition): if it is below 70% write Satisfied, else write Not satisfied.

Some solved entries appear below for comparison.
C[C@@]12C[C@@]3(O)O[C@@H](O1)[C@]1(COC(=O)c4ccccc4)[C@@H]3C[C@@]12O[C@@H]1O[C@H](CO)[C@@H](O)[C@H](O)[C@@H]1O : Not satisfied
C#C[C@]1(O)CC[C@@H]2[C@@H]3CCc4cc(O)ccc4[C@H]3CC[C@@]21C : Satisfied

Query string: For COc1ccc([C@@H]2CNC(=O)C2)cc1OC1CCCC1 , is the recorded parasite growth, % of control (lower = inhibition) below the cut-off of 70%?
Result string: Satisfied

Query string: For C[C@@H](Cc1cc2c(c(C(N)=O)c1)N(CCCO)CC2)NCCOc1ccccc1OCC(F)(F)F , is the recorded parasite growth, % of control (lower = inhibition) below the cut-off of 70%?
Result string: Satisfied

Query string: For C=Cc1c(C)c2cc3nc(cc4[nH]c(cc5nc(cc1[nH]2)C(C)=C5CCC(=O)O)c(CCC(=O)OC)c4C)[C@@]1(C)C3=CC=C(C(=O)OC)[C@H]1C(=O)OC , is the recorded parasite growth, % of control (lower = inhibition) below the cut-off of 70%?
Result string: Satisfied

Query string: For Cc1cnn(C)c1C(=O)Nc1cc(Nc2ccc3c(C=Cc4ccccn4)n[nH]c3c2)ccc1F , is the recorded parasite growth, % of control (lower = inhibition) below the cut-off of 70%?
Result string: Satisfied

Query string: For CN(N=O)C(=O)N[C@H]1C(O)OC(CO)[C@@H](O)[C@H]1O (stereo not given in full) , is the recorded parasite growth, % of control (lower = inhibition) below the cut-off of 70%?
Result string: Not satisfied
